target: human P2Y14 receptor (Homo sapiens); assay: Human P2Y14 receptor assay, inhibition of binding of a fluorescent antagonist, flow cytometry in CHO cells; conditions: CHO cells expressing human P2Y14, read-out: hP2Y14 IC50 ± SEM
Sequence (Q15391 whole entry): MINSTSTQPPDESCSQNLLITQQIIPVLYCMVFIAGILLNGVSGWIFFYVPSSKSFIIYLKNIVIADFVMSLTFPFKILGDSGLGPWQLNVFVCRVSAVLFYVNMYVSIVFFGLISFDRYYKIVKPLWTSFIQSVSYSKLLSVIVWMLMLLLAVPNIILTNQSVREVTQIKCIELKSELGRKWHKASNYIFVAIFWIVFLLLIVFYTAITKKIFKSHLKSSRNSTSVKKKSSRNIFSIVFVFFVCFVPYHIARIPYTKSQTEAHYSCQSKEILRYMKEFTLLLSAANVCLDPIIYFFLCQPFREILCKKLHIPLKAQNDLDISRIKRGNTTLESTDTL
pIC50: −log10 of the molar value.
READOUT: pIC50

Field: pIC50 (human P2Y14 receptor (Homo sapiens)). Entry: "Cn1c(=O)n([C@@H]2O[C@H](COP(=O)(O)CP(=O)(O)O)[C@@H](O)[C@H]2O)cc/c1=N/OCc1ccccc1" < 2.52

* * *

Answer each item with its documented Ki.
Biological target: recombinant soluble rat CD73 (Rattus norvegicus)
Sequence (P21588 29-551 limits assumed): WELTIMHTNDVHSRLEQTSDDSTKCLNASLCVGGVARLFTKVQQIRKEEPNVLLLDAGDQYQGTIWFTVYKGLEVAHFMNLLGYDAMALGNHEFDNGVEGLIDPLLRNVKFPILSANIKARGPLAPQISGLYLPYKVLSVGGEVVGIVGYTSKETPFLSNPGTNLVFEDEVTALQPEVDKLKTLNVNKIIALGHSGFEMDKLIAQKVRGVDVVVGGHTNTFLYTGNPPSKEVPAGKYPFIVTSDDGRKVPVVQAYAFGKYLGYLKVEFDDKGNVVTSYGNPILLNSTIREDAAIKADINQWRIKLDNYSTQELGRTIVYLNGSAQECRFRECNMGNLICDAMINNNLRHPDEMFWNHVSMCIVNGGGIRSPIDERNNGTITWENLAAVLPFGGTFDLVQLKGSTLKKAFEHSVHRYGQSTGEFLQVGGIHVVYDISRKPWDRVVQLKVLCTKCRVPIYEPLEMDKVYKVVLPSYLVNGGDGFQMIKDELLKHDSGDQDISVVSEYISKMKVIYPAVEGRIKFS
Experiment: Radiometric rat ecto-5′-nucleotidase (CD73) assay with [3H]AMP
Details: read-out: Ki ± SEM (nM), rat CD73; Table 3; recombinant soluble rat CD73, 5 μM [3H]AMP
Give bare numbers, in nM.

{"COMPOUND": "Nc1ncnc2c1ncn2[C@@H]1O[C@H](COP(=O)(O)CP(=O)(O)O)[C@@H](O)[C@H]1O [I, reference compound]", "NUMBER": 167}

// switching to the query compound
Field: Ki (recombinant soluble rat CD73 (Rattus norvegicus)). Entry: Nc1ncnc2c1ccn2[C@@H]1O[C@H](COP(=O)(O)CP(=O)(O)O)[C@@H](O)[C@H]1O [Compound 2g] 88.6
